Data provenance is ChEMBL document CHEMBL3832545.

tested on: Homo sapiens; assay: Evaluation of the pharmacokinetic parameters for Rivastigmine 0.5 to 1 hour after administration of 9.5 mg/24 hours Rivastigmine transdermal system (Exelon patch).; format: ADME, organism-based; conditions: in vivo, topical_or_ocular, dosed compound id 5, dosed compound name RIVASTIGMINE, regimen Single dose, sampling time1 0.5-1 hr, study dosing duration 24 hr, tissue Cerebrospinal Fluid (CSF)
propertyMeasured: Tmax

[[record]]
compound = "CCN(C)C(=O)Oc1cccc([C@H](C)N(C)C)c1 [RIVASTIGMINE]"
assayresult = "1.4 to 2.6 h"


====

system: Homo sapiens; experiment: Evaluation of the pharmacokinetic parameters for Rivastigmine 0.5 to 1 hour after administration of 9.5 mg/24 hours Rivastigmine transdermal system (Exelon patch).; type: ADME, organism-based; details: in vivo, topical_or_ocular, dosed compound id 5, dosed compound name RIVASTIGMINE, regimen Single dose, sampling time1 0.5-1 hr, study dosing duration 24 hr, tissue Plasma
propertyMeasured: Vd

[[record]]
smilesrepresentation = "CCN(C)C(=O)Oc1cccc([C@H](C)N(C)C)c1"
targetentity = "Homo sapiens"
assayresult = "1.8 to 2.7 L/kg"


====

experiment: Evaluation of the pharmacokinetic parameters for Rivastigmine 0.5 to 1 hour after administration of 9.5 mg/24 hours Rivastigmine transdermal system (Exelon patch).; type: ADME, organism-based; conditions: human, in vivo, topical or ocular, 9.5 mg/24 hours, dosed compound id 5, dosed compound name RIVASTIGMINE, regimen Single dose, sampling time1 0.5-1 hr, study dosing duration 24 hr, tissue Plasma
propertyMeasured: CL renal

[[record]]
molecule = "CCN(C)C(=O)Oc1cccc([C@H](C)N(C)C)c1 [RIVASTIGMINE]"
assayresult = "35 to 46.7 mL/min"

